The reader will find reported growth inhibition values listed item by item below.
# Experiment summary: NCI Yeast Anticancer Drug Screen. Data for the sgs1 mgt1 strain (AID 161);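 also: 0% = growth of cultures given vehicle only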
# Condition set: S. cerevisiae sgs1 mgt1 strain, at 50.0 µM, hits give high values
The panel holds about 79,000 compounds, 15% with a hit somewhere; the sample as a whole holds those more often.
Please state the figure in %; there is no need to write the unit.

Known growth inhibition results, listed for orientation:
Compound: NC(=O)C(C(N)=O)c1ccnc2ccccc12
Value unit: %
growth inhibition: -16

Compound: Cc1ccc(S(=O)(=O)NCCC(Cl)(Cl)Cl)cc1
Value unit: %
growth inhibition: 1.05

In: What value of measured growth inhibition is listed for CC(C)=C/C(C)=N/NC(N)=O ?
Out: -24.3

In: What value of measured growth inhibition is listed for N=C1CCCC1C(=S)SCCC(N)=O (stereo unspecified) ?
Out: -51.5

In: What value of measured growth inhibition is listed for O=[N+]([O-])c1ccc(-c2cc[cH-]c2)cc1.[Fe+2].c1cc[cH-]c1 ?
Out: 13.8

In: What value of measured growth inhibition is listed for CC(=O)c1cccc(NC(=O)Nc2cccc(O)c2)c1 ?
Out: -5.35

In: What value of measured growth inhibition is listed for CC(C)(CS(C)(=O)=O)C(=O)O ?
Out: 3.05

In: What value of measured growth inhibition is listed for COc1ccccc1Oc1ccccc1 ?
Out: -8.6

In: What value of measured growth inhibition is listed for O=C(Cc1ccc([N+](=O)[O-])c([N+](=O)[O-])c1CC(=O)C(=O)Nc1cc(Cl)ccc1Cl)C(=O)Nc1cc(Cl)ccc1Cl ?
Out: -14.8

In: What value of measured growth inhibition is listed for CCC(C(=O)c1ccccc1)c1cccc2c1N(C(C)=O)CC2 (stereo unspecified) ?
Out: -7.5

In: What value of measured growth inhibition is listed for Nc1ncnc2c1cnn2-c1ccc(Cl)cc1 ?
Out: 62.6

In: What value of measured growth inhibition is listed for O=Cc1ccccc1S(=O)(=O)O ?
Out: -6.5

In: What value of measured growth inhibition is listed for CC(C)=CCCC(=O)C(c1nc2nnc(N)n2[nH]c1=O)c1nc2nnc(N)n2[nH]c1=O ?
Out: -1.95
